# measured.on: AII-1 receptor
# experimental.details: AII-1 site binding: displacement of [125I]AII in adrenal cortex microsomes in presence of 10^-5 M EXP655 (Table 1)
# assay.conditions: 10^-5 M EXP655 present, [125I]AII displacement
assay.metric: pIC50
Numbers only, as −log10 of the molar value.

>>> obs_value("CNCC(=O)N[C@@H](CCCN=C(N)N)C(=O)N[C@H](C(=O)N[C@@H](Cc1ccc(O)cc1)C(=O)N[C@H](C(=O)N[C@@H](Cc1cnc[nH]1)C(=O)N1CCC[C@H]1C(=O)N[C@@H](C)C(=O)O)C(C)C)C(C)C")
9.15
>>> obs_value("CCCc1nc(-c2ccccc2)c(C=O)n1Cc1ccc(-c2ccccc2C(=O)O)cc1")
6.54

Fill in pIC50 for each of the 2 compounds listed.
1. CCCc1nc(-c2ccccc2)c(C=O)n1Cc1ccc(-c2ccccc2-c2nnn[nH]2)cc1
2. Cc1cc(Cn2cnc3c2CC(C(=O)O)N(C(=O)C(c2ccccc2)c2ccccc2)C3)ccc1N (stereo not shown)

Result:
[7.66, 3.52]
